Source: the NIST ThermoML archive (doi:10.1016/j.fluid.2014.06.021)

Listing of recorded activity coefficient by entry.
EXPERIMENTAL PROTOCOL: activity coefficient (dimensionless); of the first substance listed, at infinite dilution; xn = mol fraction of the nth substance listed
MEASUREMENT PARAMETERS: 323.15 K; 101.33 kPa; Liquid; Chromatography; x1 = 0
Simply state the number, no unit and no words.

MOLECULE	PROPERTY MEASURED	VALUE MEASURED
CC#N [acetonitrile] + C[n+]1ccn(CCCCS(=O)(=O)O)c1.O=S(=O)([N-]S(=O)(=O)C(F)(F)F)C(F)(F)F	activity coefficient	0.4
CCC(C)=O [butanone] + C[n+]1ccn(CCCCS(=O)(=O)O)c1.O=S(=O)([O-])C(F)(F)F	activity coefficient	1.06
CO [methanol] + C[n+]1ccn(CCCCS(=O)(=O)O)c1.O=S(=O)([N-]S(=O)(=O)C(F)(F)F)C(F)(F)F	activity coefficient	0.06
CCC(=O)CC [pentan-3-one] + C[n+]1ccn(CCCCS(=O)(=O)O)c1.O=S(=O)([O-])C(F)(F)F	activity coefficient	2.31
ClC(Cl)Cl [trichloromethane] + C[n+]1ccn(CCCCS(=O)(=O)O)c1.O=S(=O)([O-])O	activity coefficient	6.65

Proceed to the following item.
Entry under review: Cc1cccc(C)c1 [1,3-dimethylbenzene] + C[n+]1ccn(CCCCS(=O)(=O)O)c1.O=S(=O)([N-]S(=O)(=O)C(F)(F)F)C(F)(F)F . Reported activity coefficient?
5.19

---

EXPERIMENTAL PROTOCOL: activity coefficient (dimensionless); of the first substance listed, at infinite dilution; xn = mol fraction of the nth substance listed
MEASUREMENT PARAMETERS: 343.15 K; 101.33 kPa; Liquid; Chromatography; x1 = 0
PROPERTY MEASURED: activity coefficient
// return a plain number; no unit text

COMPOUND	activity coefficient
Cc1ccccc1C [1,2-dimethylbenzene] + C[n+]1ccn(CCCCS(=O)(=O)O)c1.O=S(=O)([O-])O	40.8
CCC(=O)CC [pentan-3-one] + C[n+]1ccn(CCCCS(=O)(=O)O)c1.O=S(=O)([N-]S(=O)(=O)C(F)(F)F)C(F)(F)F	0.77
C#CCCCCC [1-heptyne] + C[n+]1ccn(CCCCS(=O)(=O)O)c1.O=S(=O)([O-])C(F)(F)F	24.8

Which activity coefficient value is on record for ClC(Cl)(Cl)Cl [tetrachloromethane] + C[n+]1ccn(CCCCS(=O)(=O)O)c1.O=S(=O)([O-])C(F)(F)F ?
11.4

Moving on to Cc1cccc(C)c1 [1,3-dimethylbenzene] + C[n+]1ccn(CCCCS(=O)(=O)O)c1.O=S(=O)([N-]S(=O)(=O)C(F)(F)F)C(F)(F)F
5.57

Now this one: CCCCCCCCCCCCC [tridecane] + C[n+]1ccn(CCCCS(=O)(=O)O)c1.O=S(=O)([O-])C(F)(F)F
1220

Follow-up entry: CCC(C)=O [butanone] + C[n+]1ccn(CCCCS(=O)(=O)O)c1.O=S(=O)([O-])O
4.47

What do you have for Cc1cccc(C)c1 [1,3-dimethylbenzene] + C[n+]1ccn(CCCCS(=O)(=O)O)c1.O=S(=O)([O-])O ?
54.5

Similarly, CCCCCCCCCCCC [dodecane] + C[n+]1ccn(CCCCS(=O)(=O)O)c1.O=S(=O)([O-])C(F)(F)F ?
997

Entry CCc1ccccc1 [ethylbenzene] + C[n+]1ccn(CCCCS(=O)(=O)O)c1.O=S(=O)([N-]S(=O)(=O)C(F)(F)F)C(F)(F)F please
5.8

// same read-out, input: Cc1ccc(C)cc1 [1,4-dimethylbenzene] + C[n+]1ccn(CCCCS(=O)(=O)O)c1.O=S(=O)([O-])O
50.6

Next up: CCCC(C)=O [pentan-2-one] + C[n+]1ccn(CCCCS(=O)(=O)O)c1.O=S(=O)([N-]S(=O)(=O)C(F)(F)F)C(F)(F)F
0.64

Same for ClCCl [dichloromethane] + C[n+]1ccn(CCCCS(=O)(=O)O)c1.O=S(=O)([N-]S(=O)(=O)C(F)(F)F)C(F)(F)F
1.28
